B1: FUT8 (parent)
chain: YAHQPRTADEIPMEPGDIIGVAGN

variants of: B1; test: protein stability index of a GFP-peptide fusion (GPS, HEK-293T) (PSI 1-6); higher = more stable; conditions: c terminus: a fixed tail appended;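 further: lentivirally expressed fusions sorted by FACS into six bins by GFP to DsRed ratio, PSI derived from sequencing read proportions per bin multiplied by bin number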
Criterion: protein stability index meeting or surpassing 4. Met: Condition met. Not met: Condition not met.

Example entries and their recorded answers appear below.
M13Q = Condition met
R6F = Condition not met
V21R = Condition not met
Q4I = Condition not met
T7H = Condition not met
Y1H = Condition met
P15F = Condition not met
G16L = Condition not met
M13V = Condition met
T7I = Condition not met

Request: Is protein stability index for R6T at or above 4?
Result: Condition met

Request: Is protein stability index for P12R at or above 4?
Result: Condition not met

Request: Is protein stability index for P12A at or above 4?
Result: Condition met

Request: Is protein stability index for Y1G at or above 4?
Result: Condition met
